Target: Glutamate receptor ionotropic, NMDA 1 [F484A,T518L]/3A (Rattus norvegicus, UniProt P35439+Q9R1M7, F484A/T518L)
Sequence (Q9R1M7 24-1135 limits assumed, other chains not shown): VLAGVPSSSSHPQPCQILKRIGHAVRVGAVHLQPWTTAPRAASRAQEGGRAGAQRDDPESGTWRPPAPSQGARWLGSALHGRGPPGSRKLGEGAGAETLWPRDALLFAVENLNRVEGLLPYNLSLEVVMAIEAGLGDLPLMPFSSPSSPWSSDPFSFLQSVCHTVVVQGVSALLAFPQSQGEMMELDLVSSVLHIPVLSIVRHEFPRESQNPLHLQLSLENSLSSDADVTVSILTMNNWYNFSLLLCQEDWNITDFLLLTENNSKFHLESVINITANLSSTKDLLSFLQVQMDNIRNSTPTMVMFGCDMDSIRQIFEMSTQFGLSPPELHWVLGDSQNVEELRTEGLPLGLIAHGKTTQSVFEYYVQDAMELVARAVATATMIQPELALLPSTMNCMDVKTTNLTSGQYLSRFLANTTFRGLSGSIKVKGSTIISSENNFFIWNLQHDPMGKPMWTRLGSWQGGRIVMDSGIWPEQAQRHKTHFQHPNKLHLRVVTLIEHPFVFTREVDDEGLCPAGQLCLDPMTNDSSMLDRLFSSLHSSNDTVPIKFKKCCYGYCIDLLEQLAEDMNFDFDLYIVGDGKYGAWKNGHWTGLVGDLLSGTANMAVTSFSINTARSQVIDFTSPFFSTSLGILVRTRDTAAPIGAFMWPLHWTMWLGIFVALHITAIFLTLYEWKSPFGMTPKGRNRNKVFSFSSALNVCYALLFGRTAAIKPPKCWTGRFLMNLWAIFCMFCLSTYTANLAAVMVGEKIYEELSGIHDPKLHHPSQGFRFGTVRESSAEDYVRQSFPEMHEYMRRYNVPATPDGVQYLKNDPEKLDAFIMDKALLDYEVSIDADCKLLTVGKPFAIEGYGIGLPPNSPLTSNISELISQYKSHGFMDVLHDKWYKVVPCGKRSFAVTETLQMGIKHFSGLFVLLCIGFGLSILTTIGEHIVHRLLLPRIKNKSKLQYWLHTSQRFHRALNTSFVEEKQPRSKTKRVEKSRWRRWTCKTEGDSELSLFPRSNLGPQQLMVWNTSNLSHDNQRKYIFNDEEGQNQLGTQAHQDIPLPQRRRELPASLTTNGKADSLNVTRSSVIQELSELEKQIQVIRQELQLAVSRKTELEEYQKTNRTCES
Test: Two-electrode Voltage Clamp Electrophysiology
Conditions: pH 7.4; 25 °C
Description: Two-electrode voltage clamp (TEVC) recordings were performed on Xenopus oocytes at room temperature 3-6 days postinjection using an OC-725C TEVC amplifier (Warner Instruments, Hamden, CT). […] Voltage and current electrodes were filled with 0.3 and 3 M KCl, respectively. […] Current responses were recorded at a holding potential of -40 and -60 mV for GluN1/N2 and GluN1/N3 receptors, respectively. […]
MEASURED PROPERTY: IC50 (µM)
Note: unit µM is implicit; provide only the numeric part.

Give the measured IC50 for O=C(O)c1cc(O)c2c(Cl)cc(Cl)cc2n1
97

---

biological target: Glutamate receptor ionotropic, NMDA 1 [F484A,T518L]/3A (Rattus norvegicus, UniProt P35439+Q9R1M7, F484A/T518L); experiment: Two-electrode Voltage Clamp Electrophysiology; conditions: pH 7.4; 25 °C
MEASURED PROPERTY: Ki (µM)
Note: unit µM is implicit; provide only the numeric part.

Give the measured Ki for O=C(O)c1cc(O)c2c(Cl)cc(Cl)cc2n1
35

---

target: Glutamate receptor ionotropic, NMDA 2D (Rat, UniProt Q62645+Q62683); assay: Two-electrode Voltage Clamp Electrophysiology; details: pH 7.4; 25 °C
MEASURED PROPERTY: Ki

Give the measured Ki for O=c1[nH]c2ccccc2n2c(S)nnc12
> 300 nM

---

target: Glutamate receptor ionotropic, NMDA 2C (Rat, UniProt Q00961+Q62683); test: Two-electrode Voltage Clamp Electrophysiology; conditions: pH 7.4; 25 °C
Sequence (Q00961 whole entry, other chains not shown): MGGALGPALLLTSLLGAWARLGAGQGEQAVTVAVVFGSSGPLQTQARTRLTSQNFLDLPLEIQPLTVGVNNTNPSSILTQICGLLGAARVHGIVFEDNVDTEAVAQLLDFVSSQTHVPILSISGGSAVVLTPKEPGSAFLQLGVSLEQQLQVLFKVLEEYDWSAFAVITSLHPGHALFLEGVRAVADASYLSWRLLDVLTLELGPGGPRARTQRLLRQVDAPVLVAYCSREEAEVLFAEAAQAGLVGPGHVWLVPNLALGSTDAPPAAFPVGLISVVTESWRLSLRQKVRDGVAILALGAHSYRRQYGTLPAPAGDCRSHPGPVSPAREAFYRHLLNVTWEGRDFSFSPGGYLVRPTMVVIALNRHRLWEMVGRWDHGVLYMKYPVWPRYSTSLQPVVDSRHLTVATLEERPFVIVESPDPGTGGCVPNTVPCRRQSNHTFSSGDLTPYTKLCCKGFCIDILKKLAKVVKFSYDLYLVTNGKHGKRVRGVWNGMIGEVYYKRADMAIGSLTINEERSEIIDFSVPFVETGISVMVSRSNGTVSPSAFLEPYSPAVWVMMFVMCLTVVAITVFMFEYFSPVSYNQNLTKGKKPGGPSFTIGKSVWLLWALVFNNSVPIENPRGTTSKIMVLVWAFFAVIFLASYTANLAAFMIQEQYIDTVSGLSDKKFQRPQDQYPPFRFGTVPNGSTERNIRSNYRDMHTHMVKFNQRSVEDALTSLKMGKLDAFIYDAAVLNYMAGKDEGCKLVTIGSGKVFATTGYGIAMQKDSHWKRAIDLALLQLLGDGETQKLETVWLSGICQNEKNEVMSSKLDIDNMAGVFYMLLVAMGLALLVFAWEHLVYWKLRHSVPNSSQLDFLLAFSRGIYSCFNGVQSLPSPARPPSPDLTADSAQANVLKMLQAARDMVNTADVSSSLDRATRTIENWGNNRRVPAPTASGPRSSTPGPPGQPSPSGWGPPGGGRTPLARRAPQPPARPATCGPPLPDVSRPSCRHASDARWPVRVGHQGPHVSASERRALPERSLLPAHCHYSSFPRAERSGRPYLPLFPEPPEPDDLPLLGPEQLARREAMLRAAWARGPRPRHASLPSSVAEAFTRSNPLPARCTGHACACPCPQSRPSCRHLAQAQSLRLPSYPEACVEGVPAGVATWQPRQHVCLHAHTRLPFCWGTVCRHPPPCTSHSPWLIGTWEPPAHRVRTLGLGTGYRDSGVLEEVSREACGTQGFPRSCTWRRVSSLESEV
MEASURED PROPERTY: Ki

Specify the recorded Ki for O=c1[nH]c2ccccc2n2c(S)nnc12 , system: Glutamate receptor ionotropic, NMDA 2C (Rat, UniProt Q00961+Q62683).
> 800 nM

---

target: Glutamate receptor ionotropic, NMDA 2A (Rat, UniProt Q00959+Q62683); assay: Two-electrode Voltage Clamp Electrophysiology; settings: pH 7.4; 25 °C
Sequence (Q00959 whole entry, other chains not shown): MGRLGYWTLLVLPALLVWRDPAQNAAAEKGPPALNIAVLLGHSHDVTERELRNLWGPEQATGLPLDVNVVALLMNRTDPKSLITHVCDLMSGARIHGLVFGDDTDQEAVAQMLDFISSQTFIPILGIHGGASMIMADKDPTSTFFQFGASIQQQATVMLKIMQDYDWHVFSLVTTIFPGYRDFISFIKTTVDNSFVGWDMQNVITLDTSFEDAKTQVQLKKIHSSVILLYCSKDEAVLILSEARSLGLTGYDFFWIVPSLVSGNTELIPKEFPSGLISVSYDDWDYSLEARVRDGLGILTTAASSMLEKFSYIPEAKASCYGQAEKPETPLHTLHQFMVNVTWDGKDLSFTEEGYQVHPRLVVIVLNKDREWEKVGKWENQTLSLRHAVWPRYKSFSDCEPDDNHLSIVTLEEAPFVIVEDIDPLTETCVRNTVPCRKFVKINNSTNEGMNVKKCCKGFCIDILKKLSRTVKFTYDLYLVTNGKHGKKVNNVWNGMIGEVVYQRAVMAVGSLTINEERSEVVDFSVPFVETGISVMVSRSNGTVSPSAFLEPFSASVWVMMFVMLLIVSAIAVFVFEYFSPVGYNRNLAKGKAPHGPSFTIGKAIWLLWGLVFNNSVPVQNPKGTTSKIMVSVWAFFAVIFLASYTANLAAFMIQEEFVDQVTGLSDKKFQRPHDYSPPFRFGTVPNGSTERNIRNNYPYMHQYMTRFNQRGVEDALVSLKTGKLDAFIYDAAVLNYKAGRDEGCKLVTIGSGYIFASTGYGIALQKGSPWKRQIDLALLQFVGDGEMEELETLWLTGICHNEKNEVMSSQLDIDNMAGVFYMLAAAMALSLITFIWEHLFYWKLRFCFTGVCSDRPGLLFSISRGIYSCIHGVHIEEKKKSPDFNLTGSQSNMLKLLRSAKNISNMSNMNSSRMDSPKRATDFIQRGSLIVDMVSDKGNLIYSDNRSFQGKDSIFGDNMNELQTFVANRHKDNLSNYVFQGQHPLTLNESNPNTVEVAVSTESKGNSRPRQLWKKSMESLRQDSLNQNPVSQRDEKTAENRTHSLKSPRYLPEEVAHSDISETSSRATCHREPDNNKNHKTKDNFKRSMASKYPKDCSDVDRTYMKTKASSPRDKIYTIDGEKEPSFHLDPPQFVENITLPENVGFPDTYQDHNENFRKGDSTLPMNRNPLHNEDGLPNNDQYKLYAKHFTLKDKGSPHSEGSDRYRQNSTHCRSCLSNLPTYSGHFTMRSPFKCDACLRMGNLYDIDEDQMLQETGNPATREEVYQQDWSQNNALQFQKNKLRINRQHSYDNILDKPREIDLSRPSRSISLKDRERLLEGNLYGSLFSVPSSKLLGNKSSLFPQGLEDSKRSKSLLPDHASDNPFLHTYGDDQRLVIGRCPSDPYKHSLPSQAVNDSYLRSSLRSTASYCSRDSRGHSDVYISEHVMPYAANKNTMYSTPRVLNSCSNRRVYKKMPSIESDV
MEASURED PROPERTY: Ki (nM)
Note: unit nM is implicit; provide only the numeric part.

>  <COMPOUND>
O=C(O)c1cc(O)c2c(Cl)cc(Cl)cc2n1 [5,7-Dichlorokynurenic acid (5,7-DCKA)]

>  <MEASURED TARGET>
Glutamate receptor ionotropic, NMDA 2A (Rat, UniProt Q00959+Q62683)

>  <Ki (nM)>
65

$$$$

Give the measured Ki for O=c1[nH]c2ccccc2n2c(S)nnc12
560

---

Target: Glutamate receptor ionotropic, NMDA 2B (Rat, UniProt Q00960+Q62683)
Assay: Two-electrode Voltage Clamp Electrophysiology
Conditions: pH 7.4; 25 °C
Method: Two-electrode voltage clamp (TEVC) recordings were performed on Xenopus oocytes at room temperature 3-6 days postinjection using an OC-725C TEVC amplifier (Warner Instruments, Hamden, CT). […] Voltage and current electrodes were filled with 0.3 and 3 M KCl, respectively. […] Current responses were recorded at a holding potential of -40 and -60 mV for GluN1/N2 and GluN1/N3 receptors, respectively. […]
MEASURED PROPERTY: Ki

Give the measured Ki for O=c1[nH]c2ccccc2n2c(S)nnc12
> 1300 nM
